Target: hCGRP receptor (CALCRL:RAMP1) (Homo sapiens, UniProt O60894+Q16602)
Construct: host or cells: GeneBLAzer CALCRL:RAMP1-CRE-bla Freestyle 293F
Sequence (O60894 27-148, one chain of several): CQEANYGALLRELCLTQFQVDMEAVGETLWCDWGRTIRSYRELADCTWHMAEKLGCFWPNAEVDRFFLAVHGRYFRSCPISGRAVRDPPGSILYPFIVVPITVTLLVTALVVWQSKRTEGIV
Test: CGRP receptor antagonist activity measured by cAMP assay (HTRF)
Type: cell-based
Conditions: % MPE: percent of the maximal possible effect; agonist human α-CGRP; read-out: hCGRP-R Efficacy Antag (%) Ave
Numbered stars: 1 amine (or outer) side, 2 acyl side, 3 side chain; on linkers, the order of the positions; unused ones are H or OH. Bridge positions count the residues as written; N and C are the ends. Square brackets hold non-standard residues; d marks the D form. Peptide text beside a SMILES is read from it. * marks the point of attachment. X5 = O=C([C@H](Cc1ccc(CO)cc1)N[*:1])[*:2]; Orn(iPr) = CC(C)NCCC[C@H](N)C(=O)O; Dab(iPr) = CC(C)NCC[C@H](N)C(=O)O; 3Pal = N[C@@H](Cc1cccnc1)C(=O)O; Picolinoyl = O=C(c1ccccn1)*; ΔPro = O=C(O)[C@@H]1C=CCN1
property_label: Emax (%)
# output: bare number, implied unit %

molecule	Emax, %
CC(C)NCCC[C@@H]1NC(=O)[C@@H](NC(=O)[C@H](Cc2ccc(O)cc2)NC(=O)[C@H](NC(=O)c2ccccn2)C(C)C)CSSC[C@@H](C(=O)N[C@@H](Cc2cccnc2)C(N)=O)NC(=O)[C@H](Cc2ccc(CO)cc2)NC(=O)[C@@H]2C=CCN2C(=O)CNC(=O)[C@H](C(C)C)NC(=O)[C@H](CC(=O)O)NC1=O [Compound 69] (Picolinoyl-[dV]YC[Orn(iPr)]DVG[ΔPro][X5]C[3Pal]-NH2; disulfide 3-10)	100

Here is another molecule to look at.
So for CC(C)NCC[C@@H]1NC(=O)[C@@H](NC(=O)[C@H](Cc2ccc(O)cc2)NC(=O)[C@H](NC(=O)c2ccccn2)C(C)C)CSSC[C@@H](C(=O)N[C@@H](Cc2cccnc2)C(N)=O)NC(=O)[C@H](Cc2ccccc2)NC(=O)[C@@H]2CCCN2C(=O)CNC(=O)[C@H](C(C)C)NC(=O)[C@H](CC(=O)O)NC1=O [Compound 9] (Picolinoyl-[dV]YC[Dab(iPr)]DVGPFC[3Pal]-NH2; disulfide 3-10) , the logged Emax turned out to be 100

====

Molecular target: hAM2 receptor (CALCRL:RAMP3) (Homo sapiens, UniProt O60896+Q16602)
Construct: expressed in transfected cells; host or cells: GeneBLAzer CALCRL:RAMP3-CRE-bla Freestyle 293F
Sequence (Q16602 23-461): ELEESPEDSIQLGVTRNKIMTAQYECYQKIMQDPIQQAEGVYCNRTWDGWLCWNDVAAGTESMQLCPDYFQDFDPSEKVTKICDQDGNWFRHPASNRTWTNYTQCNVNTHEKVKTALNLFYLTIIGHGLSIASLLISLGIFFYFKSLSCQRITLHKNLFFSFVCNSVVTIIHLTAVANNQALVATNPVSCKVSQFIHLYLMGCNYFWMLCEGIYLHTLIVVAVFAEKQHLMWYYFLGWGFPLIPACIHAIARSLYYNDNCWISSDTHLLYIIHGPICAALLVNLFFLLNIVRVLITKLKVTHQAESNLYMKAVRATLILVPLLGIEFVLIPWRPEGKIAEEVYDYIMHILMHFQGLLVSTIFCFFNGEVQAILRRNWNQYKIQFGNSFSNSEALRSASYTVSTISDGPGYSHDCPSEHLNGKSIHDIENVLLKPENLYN
Sequence (O60896 24-148): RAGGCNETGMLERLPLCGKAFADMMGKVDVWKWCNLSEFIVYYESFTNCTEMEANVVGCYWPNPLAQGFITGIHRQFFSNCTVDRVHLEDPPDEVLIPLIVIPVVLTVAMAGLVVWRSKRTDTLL
Experiment: AM2 receptor antagonist activity measured by cAMP assay (HTRF)
Type: cell-based
Details: GeneBLAzer CALCRL:RAMP3-CRE-bla Freestyle 293F cells; agonist human adrenomedullin; read-out: hAM2-R IC50 Ave
Bridge positions count the residues as written; N and C are the ends. Square brackets hold non-standard residues; d marks the D form. Peptide text beside a SMILES is read from it. * marks the point of attachment. Lys(Me2) = CN(C)CCCC[C@H](N)C(=O)O; Oxazole2carbonyl = O=C(c1ncco1)*; 3Pal = N[C@@H](Cc1cccnc1)C(=O)O; X4 = O=C(c1ncccc1[N+](=O)[O-])*; Orn = NCCC[C@H](N)C(=O)O; X10 = O=C(c1nccs1)*
property_label: IC50 (µM)
# output: bare number, implied unit µM

Known results for compounds:
compound	unit_abbrev	IC50
CC(C)[C@@H]1NC(=O)[C@H](CC(=O)O)NC(=O)[C@H](CCCNC(=N)N)NC(=O)[C@@H](NC(=O)[C@H](Cc2ccc(O)cc2)NC(=O)[C@H](NC(=O)c2ncccc2[N+](=O)[O-])C(C)C)CSSC[C@@H](C(=O)N[C@@H](Cc2cccnc2)C(N)=O)NC(=O)[C@H](Cc2ccccc2)NC(=O)[C@@H]2CCCN2C(=O)CNC1=O [Compound 50] (X4-[dV]YCRDVGPFC[3Pal]-NH2; disulfide 3-10)	µM	0.0081
CC(C)[C@@H]1NC(=O)[C@H](CC(=O)O)NC(=O)[C@H](CCCNC(=O)[C@@H](N)CCCCN(C)C)NC(=O)[C@@H](NC(=O)[C@H](Cc2ccc(O)cc2)NC(=O)[C@H](NC(=O)c2ncco2)C(C)C)CSSC[C@@H](C(=O)N[C@@H](Cc2cccnc2)C(N)=O)NC(=O)[C@H](Cc2ccccc2)NC(=O)[C@@H]2CCCN2C(=O)CNC1=O [Compound 44] (Oxazole2carbonyl-[dV]YC[Orn](Lys(Me2))DVGPFC[3Pal]-NH2; disulfide 3-10)	µM	0.114

Here is another compound to look at.
So for CC(C)[C@@H]1NC(=O)[C@H](CC(=O)O)NC(=O)[C@H](CCCNC(=N)N)NC(=O)[C@@H](NC(=O)[C@H](Cc2ccc(O)cc2)NC(=O)[C@H](NC(=O)c2nccs2)C(C)C)CSSC[C@@H](C(=O)N[C@@H](Cc2cccnc2)C(N)=O)NC(=O)[C@H](Cc2ccccc2)NC(=O)[C@@H]2CCCN2C(=O)CNC1=O [Compound 33] (X10-[dV]YCRDVGPFC[3Pal]-NH2; disulfide 3-10) , the logged IC50 turned out to be 0.011

====

Target: hCGRP receptor (CALCRL:RAMP1) (Homo sapiens, UniProt O60894+Q16602)
Construct: host or cells: GeneBLAzer CALCRL:RAMP1-CRE-bla Freestyle 293F
Assay: CGRP receptor antagonist activity measured by cAMP assay (HTRF)
Format: cell-based
Settings: % MPE: percent of the maximal possible effect; agonist human α-CGRP; read-out: hCGRP-R Efficacy Antag (%) Ave
Numbered stars: 1 amine (or outer) side, 2 acyl side, 3 side chain; on linkers, the order of the positions; unused ones are H or OH. Bridge positions count the residues as written; N and C are the ends. Square brackets hold non-standard residues; d marks the D form. Peptide text beside a SMILES is read from it. * marks the point of attachment. X13 = N#CN=C(N)NCC[C@H](N[*:1])C(=O)[*:2]; Picolinoyl(3,5-F2) = O=C(c1ncc(F)cc1F)*; Lys(Me2) = CN(C)CCCC[C@H](N)C(=O)O; Orn(iPr) = CC(C)NCCC[C@H](N)C(=O)O; Benzoyl(4-F) = O=C(c1ccc(F)cc1)*; 3Pal = N[C@@H](Cc1cccnc1)C(=O)O; Orn = NCCC[C@H](N)C(=O)O; X6 = O=C(c1ccncn1)*
Items are presented alongside their recorded Emax.
# output: bare number, implied unit %

molecule	measured_target	property_label	unit_abbrev	readout_number
CC(C)[C@@H]1NC(=O)[C@H](CC(=O)O)NC(=O)[C@H](CCNC(N)=NC#N)NC(=O)[C@@H](NC(=O)[C@H](Cc2ccc(O)cc2)NC(=O)[C@H](NC(=O)c2ccc(F)cc2)C(C)C)CSSC[C@@H](C(=O)N[C@@H](Cc2cccnc2)C(N)=O)NC(=O)[C@H](Cc2ccccc2)NC(=O)[C@@H]2CCCN2C(=O)CNC1=O [Compound 19] ({Benzoyl(4-F)}-[dV]YC[X13]DVGPFC[3Pal]-NH2; disulfide 3-10)	hCGRP receptor (CALCRL:RAMP1) (Homo sapiens, UniProt O60894+Q16602)	Emax	%	100
CC(C)[C@@H]1NC(=O)[C@H](CC(=O)O)NC(=O)[C@H](CCCNC(=O)[C@@H](N)CCCCN(C)C)NC(=O)[C@@H](NC(=O)[C@H](Cc2ccc(O)cc2)NC(=O)[C@H](NC(=O)c2ccncn2)C(C)C)CSSC[C@@H](C(=O)N[C@@H](Cc2cccnc2)C(N)=O)NC(=O)[C@H](Cc2ccccc2)NC(=O)[C@@H]2CCCN2C(=O)CNC1=O [Compound 45] (X6-[dV]YC[Orn](Lys(Me2))DVGPFC[3Pal]-NH2; disulfide 3-10)	hCGRP receptor (CALCRL:RAMP1) (Homo sapiens, UniProt O60894+Q16602)	Emax	%	100

Here is another molecule to look at.
So for CC(C)NCCC[C@@H]1NC(=O)[C@@H](NC(=O)[C@H](Cc2ccc(O)cc2)NC(=O)[C@H](NC(=O)c2ncc(F)cc2F)C(C)C)CSSC[C@@H](C(=O)N[C@@H](Cc2cccnc2)C(N)=O)NC(=O)[C@H](Cc2ccccc2)NC(=O)[C@@H]2CCCN2C(=O)CNC(=O)[C@H](C(C)C)NC(=O)[C@H](CC(=O)O)NC1=O [Compound 62] ({Picolinoyl(3,5-F2)}-[dV]YC[Orn(iPr)]DVGPFC[3Pal]-NH2; disulfide 3-10) , the logged Emax turned out to be 100

====

Target: hCGRP receptor (CALCRL:RAMP1) (Homo sapiens, UniProt O60894+Q16602)
Construct: host or cells: GeneBLAzer CALCRL:RAMP1-CRE-bla Freestyle 293F
Assay: CGRP receptor antagonist activity measured by cAMP assay (HTRF)
Type: cell-based
Settings: % MPE: percent of the maximal possible effect; agonist human α-CGRP; read-out: hCGRP-R Efficacy Antag (%) Ave
Description: Example 6: CGRP Receptor Antagonist Activity Measured by cAMP Assay CGRP receptor agonists increase intracellular cyclic adenosine mono-phosphate (cAMP). CGRP receptor antagonists can reduce the agonist effect. […]
Bridge positions count the residues as written; N and C are the ends. Square brackets hold non-standard residues; d marks the D form. Side chains are listed from the residue outwards. Peptide text beside a SMILES is read from it. * marks the point of attachment. 3Pal = N[C@@H](Cc1cccnc1)C(=O)O; Picolinoyl = O=C(c1ccccn1)*; Dap = NC[C@H](N)C(=O)O; AEEA = NCCOCCOCC(=O)O
Items are presented alongside their recorded Emax.
# output: bare number, implied unit %

So for CC(C)[C@@H]1NC(=O)[C@H](CC(=O)O)NC(=O)[C@H](CNC(=O)COCCOCCNC(=O)COCCOCCN)NC(=O)[C@@H](NC(=O)[C@H](Cc2ccc(O)cc2)NC(=O)[C@H](NC(=O)c2ccccn2)C(C)C)CSSC[C@@H](C(=O)N[C@@H](Cc2cccnc2)C(N)=O)NC(=O)[C@H](Cc2ccccc2)NC(=O)[C@@H]2CCCN2C(=O)CNC1=O [Compound 10] (Picolinoyl-[dV]YC[Dap]([AEEA-AEEA])DVGPFC[3Pal]-NH2; disulfide 3-10) , the logged Emax turned out to be 100
